Tested on: HEL
Assay: The compound was tested for antiviral activity by measuring the concentration required to reduce plaque formation against cytomegalo virus AD-169 strain
Assay type: functional, cell-based
Conditions: Homo sapiens
IC50 overview

As a guide, the following entries are already answered.
>  <Compound>
O=C1O/C(=C\Cn2cc(Br)c(=O)[nH]c2=O)C(OCc2ccccc2)=C1OCc1ccccc1

>  <IC50>
> 2000 nM

$$$$
>  <Compound>
Nc1nc2c(ncn2COC(CO)CO)c(=O)[nH]1 [GANCICLOVIR]

>  <IC50>
1000 nM

$$$$
>  <Compound>
O=C1O/C(=C\Cn2cnc3c(-n4cccc4)ncnc32)C(OCc2ccccc2)=C1OCc1ccccc1

>  <IC50>
> 500 nM

$$$$
>  <Compound>
O=C1O/C(=C\Cn2cnc3c(Cl)ncnc32)C(OCc2ccccc2)=C1OCc1ccccc1

>  <IC50>
> 5000 nM

$$$$
>  <Compound>
O=C1O/C(=C\Cn2ccc(=O)[nH]c2=O)C(OCc2ccccc2)=C1OCc1ccccc1

>  <IC50>
3500 nM

$$$$
>  <Compound>
O=C1O/C(=C\Cn2cc(I)c(=O)[nH]c2=O)C(OCc2ccccc2)=C1OCc1ccccc1

>  <IC50>
> 2000 nM

$$$$
>  <Compound>
O=C1O/C(=C/Cn2cnc3ncnc(Cl)c32)C(OCc2ccccc2)=C1OCc1ccccc1

>  <IC50>
> 5000 nM

$$$$
>  <Compound>
O=C1O/C(=C\Cn2cc(C(F)(F)F)c(=O)[nH]c2=O)C(OCc2ccccc2)=C1OCc1ccccc1

>  <IC50>
> 500 nM

$$$$
>  <Compound>
O=C1O/C(=C\Cn2cc(Cl)c(=O)[nH]c2=O)C(OCc2ccccc2)=C1OCc1ccccc1

>  <IC50>
> 2000 nM

$$$$

Next, consider the following compound.
Data request: What value of IC50 has been reported for the following compound? O=C1O/C(=C\Cn2cc(F)c(=O)[nH]c2=O)C(OCc2ccccc2)=C1OCc1ccccc1
Data returned: 3500 nM
